test system: LAPC4 prostate cancer cells, which express the AKT1 E17K allele; assay: Antiproliferative effects in LAPC4 cells (CellTiter Glo, 72 h); assay type: cell-based; settings: Homo sapiens, LAPC4, 72 h, read-out: LAPC4 proliferation IC50: GeoMean IC50
Form field: IC50 (one value per entry).

>  <SMILES>
CN(C)c1ccn(-c2ccc3nc(-c4cccnc4N)n(-c4ccc5c(c4)CC[C@@H]5NC(=O)c4ccc(O)c(C=O)c4)c3n2)n1

>  <IC50>
10 to 100 nM

$$$$
>  <SMILES>
Cc1cnn(-c2ccc3nc(-c4cccnc4N)n(-c4ccc5c(c4)CC[C@@H]5NC(=O)c4ccc(O)c(C=O)c4)c3n2)c1

>  <IC50>
100 to 2000 nM

$$$$
>  <SMILES>
Nc1ncccc1-c1nc2ccc(-n3cccn3)nc2n1-c1ccc2c(c1)CC[C@@H]2NC(=O)c1cc(C=O)c(O)cc1-n1cccn1

>  <IC50>
100 to 2000 nM

$$$$
>  <SMILES>
[N-]=[N+]=Nc1cc(O)c(C=O)cc1C(=O)N[C@H]1CCc2cc(-n3c(-c4cccnc4N)nc4ccc(-n5cccn5)nc43)ccc21

>  <IC50>
100 to 2000 nM

$$$$
>  <SMILES>
Nc1ncccc1-c1nc2ccc(-c3cnccn3)nc2n1-c1ccc2c(c1)CC[C@@H]2NC(=O)c1cc(C=O)c(O)c(F)c1F

>  <IC50>
10 to 100 nM

$$$$
>  <SMILES>
COc1cc(O)c(C=O)cc1C(=O)N[C@H]1CCc2cc(-n3c(-c4cccnc4N)nc4ccc(-c5ccccc5)nc43)ccc21

>  <IC50>
100 to 2000 nM

$$$$
